Experiment: Temperature sensitivity of carboxylic acid extraction by 0.5 mol/kg Alamine 304 + 10% octanol in kerosene
Type: physicochemical
Settings: distribution coefficient at 30°C divided by that at 75°C; aqueous phase 0.05 mol/kg
Field: label. Allowed values: TRUE (TS in Equilibrium with Aqueous Solutions of (mol/kg) 0.05 < 4) or FALSE (TS in Equilibrium with Aqueous Solutions of (mol/kg) 0.05 >= 4).

Query string: Is it true that TS in Equilibrium with Aqueous Solutions of (mol/kg) 0.05 reported for O=C(O)/C=C\C(=O)O is less than 4?
Result string: TRUE

Query string: Is it true that TS in Equilibrium with Aqueous Solutions of (mol/kg) 0.05 reported for CC(C)C(=O)O is less than 4?
Result string: TRUE

Query string: Is it true that TS in Equilibrium with Aqueous Solutions of (mol/kg) 0.05 reported for CC(O)C(=O)O (stereo not shown) is less than 4?
Result string: TRUE

Query string: Is it true that TS in Equilibrium with Aqueous Solutions of (mol/kg) 0.05 reported for O=C(O)CCC(=O)O is less than 4?
Result string: FALSE

Query string: Is it true that TS in Equilibrium with Aqueous Solutions of (mol/kg) 0.05 reported for O=C(O)[C@H](O)[C@@H](O)[C@H](O)[C@H](O)CO is less than 4?
Result string: TRUE

Query string: Is it true that TS in Equilibrium with Aqueous Solutions of (mol/kg) 0.05 reported for O=C(O)C(O)C(O)C(=O)O (stereo not shown) is less than 4?
Result string: TRUE

Query string: Is it true that TS in Equilibrium with Aqueous Solutions of (mol/kg) 0.05 reported for O=C(O)CC(O)(CC(=O)O)C(=O)O is less than 4?
Result string: FALSE

New cases:
Query string: Is it true that TS in Equilibrium with Aqueous Solutions of (mol/kg) 0.05 reported for O=C(O)CC(=O)O is less than 4?
Result string: TRUE

----------
Experiment: Temperature sensitivity of carboxylic acid extraction by 0.5 mol/kg Alamine 304 + 10% octanol in kerosene
Assay type: physicochemical
Details: distribution coefficient at 30°C divided by that at 75°C; aqueous phase 0.3 mol/kg
Documented TS in Equilibrium with Aqueous Solutions of (mol/kg) 0.3 across a set of compounds
Reply with the value as a number alone.

Query string: Value lookup for TS in Equilibrium with Aqueous Solutions of (mol/kg) 0.3; key = O=C(O)CCC(=O)O [Succinic, succinic acid]
Result string: 4.0

Query string: Value lookup for TS in Equilibrium with Aqueous Solutions of (mol/kg) 0.3; key = O=C(O)CC(O)(CC(=O)O)C(=O)O [Citric, citric acid]
Result string: 2.6

Query string: Value lookup for TS in Equilibrium with Aqueous Solutions of (mol/kg) 0.3; key = CC(O)C(=O)O (stereo not shown) [Lactic, lactic acid]
Result string: 2.4

Query string: Value lookup for TS in Equilibrium with Aqueous Solutions of (mol/kg) 0.3; key = O=C(O)CC(=O)O [Malonic]
Result string: 1.3

Query string: Value lookup for TS in Equilibrium with Aqueous Solutions of (mol/kg) 0.3; key = O=C(O)CCCC(=O)O [Glutaric]
Result string: 4.5

New cases:
Query string: Value lookup for TS in Equilibrium with Aqueous Solutions of (mol/kg) 0.3; key = O=C(O)/C=C\C(=O)O [Maleic]
Result string: 1.0

Query string: Value lookup for TS in Equilibrium with Aqueous Solutions of (mol/kg) 0.3; key = O=C(O)[C@H](O)[C@@H](O)[C@H](O)[C@H](O)CO [Gluconic]
Result string: 2.4

Query string: Value lookup for TS in Equilibrium with Aqueous Solutions of (mol/kg) 0.3; key = CC(C)C(=O)O [Isobutyric]
Result string: 1.4

Query string: Value lookup for TS in Equilibrium with Aqueous Solutions of (mol/kg) 0.3; key = O=C(O)CC(O)C(=O)O (stereo not shown) [Malic]
Result string: 4.0

Query string: Value lookup for TS in Equilibrium with Aqueous Solutions of (mol/kg) 0.3; key = O=C(O)C(O)C(O)C(=O)O (stereo not shown) [Tartaric]
Result string: 2.7
